// provenance: patent US20210388087A1

Target: T1, Human CD137 ECD (human)
T1 construct: entry includes C-terminal His-tag and biotin acceptor peptide; also called human CD137 extracellular domain; 4-1BB
T1 sequence (chain, as listed by the source limits assumed): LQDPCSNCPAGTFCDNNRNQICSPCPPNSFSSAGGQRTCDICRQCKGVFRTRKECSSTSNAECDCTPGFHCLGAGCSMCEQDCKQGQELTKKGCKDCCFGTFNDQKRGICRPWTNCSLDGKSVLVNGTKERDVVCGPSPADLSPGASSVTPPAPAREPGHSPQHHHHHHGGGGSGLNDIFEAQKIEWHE
Test: Biacore SPR, vs parent H183/L072
Recorded measurements of fold change of affinity, one per entry
Give the value, in units of fold, as a plain number.

Reference set (4 entries):
binder="H183/L072 VL Q90H (antibody, name in Kabat numbering, V domains shown, Dual-Ig) VH: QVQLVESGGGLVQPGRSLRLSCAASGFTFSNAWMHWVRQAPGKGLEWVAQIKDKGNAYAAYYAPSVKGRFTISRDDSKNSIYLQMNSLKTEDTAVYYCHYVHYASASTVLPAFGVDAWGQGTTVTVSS VL: DIVMTQSPLSLPVTPGEPASISCQASQELVHMNRNTYLHWYQQKPGQAPRLLIYKVSNRFPGVPDRFSGSGSGTDFTLKISRVEAEDVGVYYCAHGTSVPFTFGQGTKLEIK" recorded_metric="fold change of affinity" numeric_value=0.2
binder="H183/L072 VL V27cH (antibody, name in Kabat numbering, V domains shown, Dual-Ig) VH: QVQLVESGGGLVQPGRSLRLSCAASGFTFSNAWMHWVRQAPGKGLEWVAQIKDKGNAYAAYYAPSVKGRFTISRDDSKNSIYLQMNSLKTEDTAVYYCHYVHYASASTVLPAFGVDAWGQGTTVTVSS VL: DIVMTQSPLSLPVTPGEPASISCQASQELHHMNRNTYLHWYQQKPGQAPRLLIYKVSNRFPGVPDRFSGSGSGTDFTLKISRVEAEDVGVYYCAQGTSVPFTFGQGTKLEIK" recorded_metric="fold change of affinity" numeric_value=0.6
binder="H183/L072 VL E27aA (antibody, name in Kabat numbering, V domains shown, Dual-Ig) VH: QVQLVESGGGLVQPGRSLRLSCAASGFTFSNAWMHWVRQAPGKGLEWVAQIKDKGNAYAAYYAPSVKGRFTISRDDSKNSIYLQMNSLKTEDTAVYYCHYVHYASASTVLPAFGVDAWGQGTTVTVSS VL: DIVMTQSPLSLPVTPGEPASISCQASQALVHMNRNTYLHWYQQKPGQAPRLLIYKVSNRFPGVPDRFSGSGSGTDFTLKISRVEAEDVGVYYCAQGTSVPFTFGQGTKLEIK" recorded_metric="fold change of affinity" numeric_value=0.9
binder="H183/L072 VL Q24T (antibody, name in Kabat numbering, V domains shown, Dual-Ig) VH: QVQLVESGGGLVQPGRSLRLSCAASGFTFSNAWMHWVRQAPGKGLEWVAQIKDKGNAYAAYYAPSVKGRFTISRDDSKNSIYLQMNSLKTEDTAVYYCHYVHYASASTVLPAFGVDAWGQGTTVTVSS VL: DIVMTQSPLSLPVTPGEPASISCTASQELVHMNRNTYLHWYQQKPGQAPRLLIYKVSNRFPGVPDRFSGSGSGTDFTLKISRVEAEDVGVYYCAQGTSVPFTFGQGTKLEIK" recorded_metric="fold change of affinity" numeric_value=1

Consider the binder shown here: H183/L072 VL K50P (antibody, name in Kabat numbering, V domains shown, Dual-Ig) VH: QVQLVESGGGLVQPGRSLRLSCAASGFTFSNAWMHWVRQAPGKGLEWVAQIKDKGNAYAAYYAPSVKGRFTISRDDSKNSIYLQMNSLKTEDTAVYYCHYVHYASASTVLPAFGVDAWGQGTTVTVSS VL: DIVMTQSPLSLPVTPGEPASISCQASQELVHMNRNTYLHWYQQKPGQAPRLLIYPVSNRFPGVPDRFSGSGSGTDFTLKISRVEAEDVGVYYCAQGTSVPFTFGQGTKLEIK What is its recorded fold change of affinity? 0
